Target: human serotonin transporter (hSERT) (Homo sapiens)
Construct: expressed in transfected cells; host or cells: HEK-293
Sequence (P31645 whole entry): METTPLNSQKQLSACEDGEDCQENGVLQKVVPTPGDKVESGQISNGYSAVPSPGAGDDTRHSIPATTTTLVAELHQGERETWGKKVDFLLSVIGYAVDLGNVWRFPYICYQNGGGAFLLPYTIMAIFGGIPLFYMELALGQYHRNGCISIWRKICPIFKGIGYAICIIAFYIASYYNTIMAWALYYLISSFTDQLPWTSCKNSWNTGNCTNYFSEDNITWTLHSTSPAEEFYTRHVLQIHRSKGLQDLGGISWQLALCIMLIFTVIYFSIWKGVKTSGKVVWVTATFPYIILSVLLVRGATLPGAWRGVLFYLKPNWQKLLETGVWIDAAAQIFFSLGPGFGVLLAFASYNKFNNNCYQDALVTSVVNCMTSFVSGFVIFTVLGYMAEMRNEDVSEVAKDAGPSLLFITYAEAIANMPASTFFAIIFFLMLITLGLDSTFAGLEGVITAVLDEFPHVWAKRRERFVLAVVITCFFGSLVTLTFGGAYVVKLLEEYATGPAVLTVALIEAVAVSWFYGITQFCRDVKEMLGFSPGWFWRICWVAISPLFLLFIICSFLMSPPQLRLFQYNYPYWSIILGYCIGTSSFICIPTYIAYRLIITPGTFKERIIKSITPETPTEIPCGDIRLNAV
Assay: Inhibition of [3H]5-HT uptake into HEK-293 cells transfected with hSERT
Type: cell-based
Conditions: hSERT HEK-293 cells, 20° C.
reported.metric: pKi
Kindly note that pKi refers to -log10 of the concentration in mol/L and answer with the value alone.

Query COC[C@H]1CNCCN1c1ccc2cc([N+](=O)[O-])ccc2n1 [Cpd 13R] yields pKi of 9.82

Query COC[C@@H]1CNCCN1c1ccc2cc([N+](=O)[O-])ccc2n1 [Cpd 13S] yields pKi of 8.78

Query COCC1CNCCN1c1ccc2cc([N+](=O)[O-])ccc2n1 (racemic) yields pKi of 9.33
